Here the recorded PBM binding z-score is given for each entry.
Tested on: RARa homodimer (NR concentration 270 nM)
Experiment: PBM binding z-score (relative to random genomic background probes); higher = stronger binding; sequences stand for … in GC…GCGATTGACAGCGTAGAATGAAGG
Please give only the number in your answer, with no unit.

The examples below pair each entry with its known result.
Polymer sequence	Readout name	Recorded value
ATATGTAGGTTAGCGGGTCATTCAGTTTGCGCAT	PBM binding z-score	1.16
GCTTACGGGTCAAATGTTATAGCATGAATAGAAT	PBM binding z-score	0.995
GCTAGGAGGACAAGGTCAGAGCTTTGTCCGTAGA	PBM binding z-score	-1.07
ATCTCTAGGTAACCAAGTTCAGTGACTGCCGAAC	PBM binding z-score	1.12
TCTTGTAGATCAAGCAGGATAAGAAAGCCTGAGT	PBM binding z-score	0.37

Suppose we examine the sequence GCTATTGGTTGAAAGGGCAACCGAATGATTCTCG ; what PBM binding z-score value has been reported?
0.176

Suppose we examine the sequence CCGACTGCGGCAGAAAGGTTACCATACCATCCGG ; what PBM binding z-score value has been reported?
-0.186

Suppose we examine the sequence TCATATAGGTAATACAGGTGAAACTCGGCATCTA ; what PBM binding z-score value has been reported?
1.3

Suppose we examine the sequence ACTTACGGGTCAACGAGTTTATAGCACGCGTATA ; what PBM binding z-score value has been reported?
0.513

Suppose we examine the sequence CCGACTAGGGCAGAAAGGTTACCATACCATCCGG ; what PBM binding z-score value has been reported?
0.161

Suppose we examine the sequence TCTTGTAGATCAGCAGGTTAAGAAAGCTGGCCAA ; what PBM binding z-score value has been reported?
-0.421

Suppose we examine the sequence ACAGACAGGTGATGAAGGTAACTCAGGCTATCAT ; what PBM binding z-score value has been reported?
0.425

###

Here the recorded PBM binding z-score is given for each entry.
Tested on: PPARg DBDmut:RXRa IVT, anti-PPARg (DBD mutation: PPARg1 K132A/R137A, NR concentration 270 nM, RXRa partner concentration 90 nM)
Assay: PBM binding z-score (relative to random genomic background probes); higher = stronger binding; sequences stand for … in GC…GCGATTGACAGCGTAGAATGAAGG
Please give only the number in your answer, with no unit.

Suppose we examine the sequence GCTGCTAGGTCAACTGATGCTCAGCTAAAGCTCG ; what PBM binding z-score value has been reported?
-0.517

Suppose we examine the sequence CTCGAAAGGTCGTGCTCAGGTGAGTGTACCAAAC ; what PBM binding z-score value has been reported?
-0.0151

Suppose we examine the sequence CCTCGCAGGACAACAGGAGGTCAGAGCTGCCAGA ; what PBM binding z-score value has been reported?
-0.749

Suppose we examine the sequence TCTTGTAGATCAATAGAGGTCAAGAAAGTGCGCT ; what PBM binding z-score value has been reported?
1.22

Suppose we examine the sequence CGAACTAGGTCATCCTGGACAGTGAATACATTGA ; what PBM binding z-score value has been reported?
1.58

Suppose we examine the sequence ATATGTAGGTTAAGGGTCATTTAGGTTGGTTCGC ; what PBM binding z-score value has been reported?
3.6

###

System: RARg:RXRa (NR concentration 270 nM, RXRa partner concentration 90 nM)
Experiment: PBM binding z-score (relative to random genomic background probes); higher = stronger binding; sequences stand for … in GC…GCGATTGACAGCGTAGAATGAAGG
Here the recorded PBM binding z-score is given for each entry.
Please give only the number in your answer, with no unit.

Suppose we examine the sequence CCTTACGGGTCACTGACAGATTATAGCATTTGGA ; what PBM binding z-score value has been reported?
4.96

Suppose we examine the sequence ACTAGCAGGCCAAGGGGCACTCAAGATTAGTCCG ; what PBM binding z-score value has been reported?
0.423

Suppose we examine the sequence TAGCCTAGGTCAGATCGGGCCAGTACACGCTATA ; what PBM binding z-score value has been reported?
2.85

Suppose we examine the sequence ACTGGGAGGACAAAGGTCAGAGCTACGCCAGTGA ; what PBM binding z-score value has been reported?
6.22

Suppose we examine the sequence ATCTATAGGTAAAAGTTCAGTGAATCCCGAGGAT ; what PBM binding z-score value has been reported?
1.92

Suppose we examine the sequence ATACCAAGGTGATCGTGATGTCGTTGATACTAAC ; what PBM binding z-score value has been reported?
0.25

Suppose we examine the sequence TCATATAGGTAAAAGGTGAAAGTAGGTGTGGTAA ; what PBM binding z-score value has been reported?
2.13
